Where do these numbers come from? They come from patent US9139577B2.

pIC50: −log10 of the molar value.
The following are reported pIC50 results, target or system MNK2a (Homo sapiens (Human), UniProt Q9HBH9).

COMPOUND	pIC50
CCOC(Oc1cc(F)ccc1Nc1ncnc2cc(N=S(C)(C)=O)cc(C)c12)C(F)(F)F (centres unmarked)	8.10
Cc1cc(N=S2(=O)CCCC2)cc2ncnc(Nc3ccc(F)cc3O[C@H](C)C(=O)N3CC[S+]([O-])CC3)c12	8.22
Cc1cc(N=S(C)(C)=O)cc2ncnc(Nc3ccc(F)cc3O[C@H](C)C(=O)N(C)Cc3ccccc3)c12	7.47
Cc1cc(N=S(C)(C)=O)cc2ncnc(Nc3ccc(Cl)cc3O[C@H](C)C(=O)NCC(F)F)c12	8.70
Cc1cc(N=S(C)(C)=O)cc2ncnc(Nc3ccc(F)cc3O[C@H](C)C(=O)N3CCC3)c12	7.72
COc1cc(N=S2(=O)CCCC2)cc2ncnc(Nc3ccc(F)cc3O[C@H](C)C(=O)NCC(F)(F)F)c12	8.70
CC(NC(=O)[C@@H](C)Oc1cc(F)ccc1Nc1ncnc2cc(N=S(C)(C)=O)cc(F)c12)C(F)F (some centres unmarked)	8.10
Cc1cc(N=S2(=O)CCCC2)cc2ncnc(Nc3ccc(F)cc3O[C@H](C)C(=O)N3CCCC3)c12	8.30
Cc1cc(N=S(C)(C)=O)cc2ncnc(Nc3ccc(F)cc3O[C@H](CO)C(=O)NCC(F)(F)F)c12	8.52
Cc1cc(N=S2(=O)CCC2)cc2ncnc(Nc3ccc(F)cc3O[C@H](C)C(=O)N(CC(F)(F)F)CC(F)(F)F)c12	8.52
Cc1cc(N=S(C)(C)=O)cc2ncnc(Nc3ccc(F)cc3O[C@H](C)C(=O)N=S(C)(C)=O)c12	8.00
Cc1cc(N=S(C)(C)=O)cc2ncnc(Nc3ccc(F)cc3OC(C)c3ncco3)c12 (centres unmarked)	8.10
Cc1cc(N=S2(=O)CCCC2)cc2ncnc(Nc3ccc(F)cc3O[C@H](C)C(=O)N3CCC(=O)CC3)c12	8.05
Cc1cc(N=S2(=O)CCCC2)cc2ncnc(Nc3ccc(F)cc3O[C@H](C)C(=O)N3CCCCC3)c12	8.52
